test: The maximum plasma concentration (Cmax) is the observed peak plasma concentration after an oral dose on dog.; assay type: ADME, organism-based, Canis lupus familiaris; set-up: route oral
Readout type: Cmax (nM)
Number only, in nM; omit the unit.

What does the record list as Cmax for O=C1N(Cc2ccc3[nH]ncc3c2)[C@H](CCc2ccccc2)[C@@H](O)[C@@H](Cc2ccccc2)N1Cc1ccc2[nH]ncc2c1 ? 250

---

target: Human immunodeficiency virus type 1 protease (Human immunodeficiency virus 1)
Readout type: pKi
Answer as the number alone; pKi is minus log10 of concentration in mol/L.

Cc1ccc(NC(=O)c2cccc(CN3C(=O)N(Cc4cccc(C(=O)Nc5ccc(C)cn5)c4)[C@H](Cc4ccccc4)[C@H](O)[C@H]3CCc3ccccc3)c2)nc1 = 10.10
NC(=O)c1cccc(CN2C(=O)N(Cc3cccc(N)c3)[C@H](Cc3ccccc3)[C@H](O)[C@H]2CCc2ccccc2)c1 = 10.22
CC(=O)c1cccc(CN2C(=O)N(Cc3cccc(C(C)=O)c3)[C@H](Cc3ccccc3)[C@H](O)[C@H]2CCc2ccccc2)c1 = 9.04

Now look at this one.
Return pKi measured with Human immunodeficiency virus type 1 protease (Human immunodeficiency virus 1) given this compound: Nc1cccc(CN2C(=O)N[C@H](CCc3ccccc3)[C@@H](O)[C@H]2Cc2ccccc2)c1 8.21
